Sourced from paper PMC10052652

- subject_of_test: superoxide dismutase (SOD) (Homo sapiens)
- Sequence (P00441 whole entry): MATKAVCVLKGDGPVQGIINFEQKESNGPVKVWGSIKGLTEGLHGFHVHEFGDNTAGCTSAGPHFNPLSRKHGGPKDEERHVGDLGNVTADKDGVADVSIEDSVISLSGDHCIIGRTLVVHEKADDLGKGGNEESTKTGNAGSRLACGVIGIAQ
- Assay type: biochemical
- test_context: at 100 µM
label 1 means recorded Anti SOD % is 40% or above; label 0 means it is below 40%.

Assess whether reported Anti SOD % for "Cc1cccc(COc2cc(O)c3c(=O)cc(-c4ccccc4)oc3c2)c1" sits at 40% or higher.
label 0

Assess whether reported Anti SOD % for COc1cc(O)c2c(=O)cc(-c3ccc(O)cc3)oc2c1 [Molecule M12, 4′,5-dihydroxy-7-methoxyflavone] sits at 40% or higher.
label 1

Assess whether reported Anti SOD % for "COc1cc(-c2cc(=O)c3ccc4c(O)cccc4c3o2)cc(OC)c1OC" sits at 40% or higher.
label 0

Assess whether reported Anti SOD % for O=c1cc(-c2ccccc2)oc2ccc(O)cc12 [Molecule M3, 6-hydroxyflavone] sits at 40% or higher.
label 1
